- systemName: TAK1-TAB1 fusion protein (Homo sapiens, UniProt O43318)
- Construct: purchased Carna
- Sequence (O43318 with tags, fused parts or gaps limits assumed): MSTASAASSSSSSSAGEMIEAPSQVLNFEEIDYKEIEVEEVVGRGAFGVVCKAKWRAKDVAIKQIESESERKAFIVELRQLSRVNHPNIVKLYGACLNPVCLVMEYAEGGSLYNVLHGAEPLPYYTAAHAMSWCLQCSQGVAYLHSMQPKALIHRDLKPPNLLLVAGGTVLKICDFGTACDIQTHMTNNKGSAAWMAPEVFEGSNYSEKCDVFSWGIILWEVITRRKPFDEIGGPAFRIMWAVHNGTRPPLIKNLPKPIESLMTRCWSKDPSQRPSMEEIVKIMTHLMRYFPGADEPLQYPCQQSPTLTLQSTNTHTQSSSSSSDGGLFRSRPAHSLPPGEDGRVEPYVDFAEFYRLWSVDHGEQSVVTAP
- procedureText: TAK1 biochemical assay (AlphaScreen, GST-MAP2K7 substrate)
- reportedConditions: TAK1-TAB1 fusion protein, GST-MAP2K7 substrate; read-out: mean TAK1 IC50 (Col. A)
Where a name gives a salt, the structure may show the parent alone.
recordedEndpoint: IC50

Here is how some compounds turned out for IC50.
>>> print(df.to_string())
                                   compound    observedresult
0  Cc1c(-c2ccccc2)oc2c(N)ncc(-c3cnn(C4CCNCC4)c3)c12 [Example 9, hydrochloride]  1000 to 10000 nM
1  CC(=O)N1CCC(n2cc(-c3cnc(N)c4oc(-c5ccc6c(c5)C(=O)NC6=O)cc34)cn2)CC1  1000 to 10000 nM
2  CC(=O)N1CCC(n2cc(-c3cnc(N)c4oc(-c5cccc(C(N)=O)c5)cc34)cn2)CC1    100 to 1000 nM

# input Name the reported IC50 value associated with the compound Cc1nc(-c2cnc(N)c3oc(-c4csc5cnccc45)cc23)cs1 [Example 390, trifluoroacetate]
# output 1000 to 10000 nM

# input Name the reported IC50 value associated with the compound CCNc1nc2cccc(-c3cc4c(-c5cnn([C@H]6CC[C@H](O)CC6)c5)cnc(N)c4o3)c2s1
# output < 100 nM

# input Name the reported IC50 value associated with the compound N#Cc1sccc1-c1cnc(N)c2oc(-c3csc4cnccc34)cc12
# output > 10000 nM

###

- Test system: pJNK in HCT-116 cells
- procedureText: Phospho-JNK (Thr183/Tyr185) Meso Scale ELISA assay, TNFα-stimulated HCT-116 cells
- Assay type: cell-based
- reportedConditions: Homo sapiens, read-out: mean HCT-116 pJNK ELISA IC50 (Col. B)
recordedEndpoint: IC50

Here is how some compounds turned out for IC50.
In [3]: df
Out[3]:
                                   compound             systemname  recordedendpoint  observedresult
0  CC(=O)N1CCC(n2cc(-c3cnc(N)c4oc(-c5csc6cnncc56)cc34)cn2)CC1 [Example 261, diformate]  pJNK in HCT-116 cells              IC50     0.1 to 1 µM
1  CC(=O)N1CCC(n2cc(-c3cnc(N)c4oc(-c5cccc(C#N)c5)cc34)cn2)CC1 [Example 143]  pJNK in HCT-116 cells              IC50     0.1 to 1 µM
2  CC(=O)N1CCC(n2cc(-c3cnc(N)c4oc(-c5cccc6ccccc56)cc34)cn2)CC1 [Example 105]  pJNK in HCT-116 cells              IC50      1 to 10 µM
3  Nc1ncc(-c2cnn(C3CNC3)c2)c2cc(-c3csc4cnccc34)oc12 [Example 314]  pJNK in HCT-116 cells              IC50      1 to 10 µM

# input Name the reported IC50 value associated with the compound COc1nn([C@H]2CC[C@@H](O)CC2)cc1-c1cnc(N)c2oc(-c3csc4cnccc34)cc12 [Example 303]
# output 0.1 to 1 µM

# input Name the reported IC50 value associated with the compound CC(=O)N1CCC(n2cc(-c3cnc(N)c4oc(-c5ccc(O)c(Cl)c5)cc34)cn2)CC1 [Example 136]
# output 0.1 to 1 µM

# input Name the reported IC50 value associated with the compound CC(=O)N1CCC(n2cc(-c3cnc(N)c4oc(-c5ccccc5C)cc34)cn2)CC1 [Example 410]
# output 0.1 to 1 µM

###

- System: p-p38 in HCT-116 cells
- procedureText: Phospho-p38 Meso Scale ELISA assay, TNFα-stimulated HCT-116 cells
- Assay type: cell-based
- reportedConditions: Homo sapiens, read-out: mean HCT-116 p-p38 ELISA IC50 (Col. C)
pIC50: −log10 of the molar value. Where a name gives a salt, the structure may show the parent alone.
Listed compounds paired with reported pIC50

Here is how some compounds turned out for pIC50.
                                   compound              systemname  recordedendpoint  observedresult
0  CC(C)n1cc(-c2cnc(N)c3oc(-c4c[nH]c5cnccc45)cc23)cn1  p-p38 in HCT-116 cells             pIC50          > 7.00
1  Nc1ncc(-c2cnn(C3CCNCC3)c2)c2cc(-c3cccc4cnsc34)oc12  p-p38 in HCT-116 cells             pIC50    6.00 to 7.00
2  Cn1cc(-c2cnc(N)c3oc(-c4c[nH]c5cnccc45)cc23)cn1 [Example 88, trifluoroacetic acid salt]  p-p38 in HCT-116 cells             pIC50    6.00 to 7.00
3  CC(=O)N1CCC(n2cc(-c3cnc(N)c4oc(-c5ccc6c(c5)C(=O)NC6)cc34)cn2)CC1  p-p38 in HCT-116 cells             pIC50          < 5.00
4  CC(=O)N1CCC(n2cc(-c3cnc(N)c4oc(-c5ccc6occc6c5)cc34)cn2)CC1  p-p38 in HCT-116 cells             pIC50    6.00 to 7.00

# input Name the reported pIC50 value associated with the compound CSc1ccc(-c2cc3c(-c4cnn(C5CCN(C(C)=O)CC5)c4)cnc(N)c3o2)cc1
# output 5.00 to 6.00

# input Name the reported pIC50 value associated with the compound CC(=O)N1CCC(n2cc(-c3cnc(N)c4oc(C5=CCCCC5)cc34)cn2)CC1
# output 5.00 to 6.00

# input Name the reported pIC50 value associated with the compound CC(=O)N1CCC(n2cc(-c3cnc(N)c4oc(-c5ccsc5)cc34)cn2)CC1
# output 5.00 to 6.00

###

- Test system: pJNK in HCT-116 cells
- procedureText: Phospho-JNK (Thr183/Tyr185) Meso Scale ELISA assay, TNFα-stimulated HCT-116 cells
- Type: cell-based
- reportedConditions: Homo sapiens, read-out: mean HCT-116 pJNK ELISA IC50 (Col. B)
Structures can show the parent of a compound that is named as a salt.
recordedEndpoint: IC50

Here is how some compounds turned out for IC50.
>>> print(df.to_string())
                                   compound  observedresult
0  CC(=O)N1CCC(n2cc(-c3cnc(N)c4oc(-c5csc6cnc(Cl)cc56)cc34)cn2)CC1 [Example 246, bis(trifluoroacetate)]  100 to 1000 nM
1  Nc1ncc(-c2cn[nH]c2)c2cc(-c3cccc4cnccc34)oc12  100 to 1000 nM
2  CSc1ccccc1-c1cc2c(-c3cnn(C4CCN(C(C)=O)CC4)c3)cnc(N)c2o1  100 to 1000 nM
3  Nc1ncc(-c2cnn([C@@H]3CCC[C@@H](O)C3)c2)c2cc(-c3cccc4cnsc34)oc12 (relative stereo)  100 to 1000 nM
4  CC(C)(C)OC(=O)N1[C@@H]2CC[C@H]1C[C@H](n1cc(-c3cnc(N)c4oc(-c5csc6cnccc56)cc34)cn1)C2  100 to 1000 nM
5  N#Cc1cc(-c2cc3c(-c4cnn([C@H]5CC[C@H](O)CC5)c4)cnc(N)c3o2)c2snnc2c1        < 100 nM
6  CC(=O)N1CCC(n2cc(-c3cnc(N)c4oc(-c5cccc6cnsc56)cc34)cn2)CC1        < 100 nM
7  Nc1ncc(-c2cnn(C3CCN(C(=O)NCC4CCCCC4)CC3)c2)c2cc(-c3cccc4cnsc34)oc12        < 100 nM

# input Name the reported IC50 value associated with the compound Nc1ncc(-c2cnn([C@@H]3C[C@@H](O)[C@@H](O)C3)c2)c2cc(-c3csc4cnccc34)oc12
# output 100 to 1000 nM

# input Name the reported IC50 value associated with the compound Nc1ncc(-c2cnn([C@@H]3C[C@H]4CC[C@@H](C3)N4)c2)c2cc(-c3cccc4cnsc34)oc12
# output 100 to 1000 nM

# input Name the reported IC50 value associated with the compound Nc1ncc(-c2cnn([C@H]3CC[C@H](O)CC3)c2)c2cc(-c3c(F)ccc4cnsc34)oc12 [Example 240, diformate salt]
# output < 100 nM

###

- systemName: TAK1-TAB1 fusion protein (Homo sapiens)
- Construct: purchased Carna
- procedureText: TAK1 biochemical assay (AlphaScreen, GST-MAP2K7 substrate)
- reportedConditions: TAK1-TAB1 fusion protein, GST-MAP2K7 substrate; read-out: mean TAK1 IC50 (Col. A)
pIC50: −log10 of the molar value. Structures can show the parent of a compound that is named as a salt.
Listed compounds paired with reported pIC50

In [3]: df
Out[3]:
                                   compound  observedresult
0  CC(=O)N1CCC(n2cc(-c3cnc(N)c4oc(-c5c(F)ccc6cnsc56)cc34)cn2)CC1 [Example 239, diformate salt]    6.00 to 7.00

# input Form: Entry = CC(=O)N1CCC(n2cc(-c3cnc(N)c4oc(-c5ccc(N6CCCCC6)nc5)cc34)cn2)CC1 | System = TAK1-TAB1 fusion protein (Homo sapiens) | pIC50 = ____
# output < 5.00

# input Form: Entry = COC(=O)c1cc2cc(-c3cc4c(-c5cnn(C6CCNCC6)c5)cnc(N)c4o3)ccc2s1 | System = TAK1-TAB1 fusion protein (Homo sapiens) | pIC50 = ____
# output 5.00 to 6.00

# input Form: Entry = CC(=O)N1CCC(n2cc(-c3cnc(N)c4oc(-c5ccc6sccc6c5)cc34)cn2)CC1 | System = TAK1-TAB1 fusion protein (Homo sapiens) | pIC50 = ____
# output 6.00 to 7.00
